- Test system: human G12D mutant KRAS-positive pancreatic cancer line AsPC-1
- experimental_protocol: Test Example 3: non-anchorage-dependent cell growth inhibition, spheroid 3D cell culture
- Type: cell-based
- condition_notes: Homo sapiens, ASPC1, 144 h, AsPC-1 spheroid 3D culture, 6 days, CellTiter Glo 2.0; read-out: IC50
Entries annotated with measured IC50
Express your answer in nM, writing the number without its unit.

Cc1ncsc1-c1ccc([C@H](CO)NC(=O)[C@@H]2C[C@@H](O)CN2C(=O)[C@H](C(C)C)n2cc(-c3ccc(COc4c(-c5c(C)c(F)cc6[nH]ncc56)c(C5CC5)cc5c(N6C[C@@H]7C[C@H]6CN7)nc(OC6CCN(CC(F)F)CC6)nc45)cc3)nn2)cc1 | 47
Cc1c(F)cc2[nH]ncc2c1-c1c(C2CC2)cc2c(N3C[C@@H]4C[C@H]3CN4)nc(OC3CCOCC3)nc2c1OCc1ccc(-c2cn([C@H](C(=O)N3C[C@H](O)C[C@H]3C(=O)N[C@@H](CO)c3cccc(S(C)(=O)=O)c3)C(C)C)nn2)cc1 | 975

Looking up Cc1ncsc1-c1ccc([C@H](CF)NC(=O)[C@@H]2C[C@@H](O)CN2C(=O)[C@H](C(C)C)n2cc(-c3ccc(COc4c(-c5c(C)c(F)cc6[nH]ncc56)c(C5CC5)cc5c(N6C[C@@H]7C[C@H]6CN7)nc(OC6CCOCC6)nc45)cc3)nn2)cc1 , I found its IC50 recorded as 104

The reported IC50 of the compound Cc1ncsc1-c1ccc([C@@H](NC(=O)[C@@H]2C[C@@H](O)CN2C(=O)[C@H](C(C)C)n2cc(-c3ccc(COc4c(-c5c(C)c(F)cc6[nH]ncc56)c(C5CC5)cc5c(N6C[C@@H]7C[C@H]6CN7)nc(OC6CCOCC6)nc45)cc3)nn2)C(F)F)cc1 was 185

The recorded IC50 for entry CO[C@@H](C)COc1nc(N2C[C@@H]3C[C@H]2CN3)c2cc(C3CC3)c(-c3c(C)c(F)cc4[nH]ncc34)c(OCc3ccc(-c4cn([C@H](C(=O)N5C[C@H](O)C[C@H]5C(=O)N[C@@H](CO)c5ccc(-n6ccnc6C)cc5)C(C)C)nn4)cc3)c2n1 equals 51

* * *

- system_under_test: KRAS G12D (Homo sapiens, UniProt P01116, G12D)
- Construct: host or cells: AsPC-1 human pancreatic cancer cells
- Sequence (P01116 1-188 isoform P01116-2 G12D): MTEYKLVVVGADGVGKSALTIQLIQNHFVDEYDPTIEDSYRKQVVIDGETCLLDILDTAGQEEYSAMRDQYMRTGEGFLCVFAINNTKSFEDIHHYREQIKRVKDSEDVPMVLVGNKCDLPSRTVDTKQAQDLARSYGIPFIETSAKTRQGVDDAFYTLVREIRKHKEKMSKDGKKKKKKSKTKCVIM
- experimental_protocol: Test Example 1-1: KRAS degradation action in AsPC-1, sandwich ELISA
- Assay type: cell-based
- condition_notes: AsPC-1 cells, 24 hours treatment, corrected with β-actin, 0% = 10 μM Example No. 7
value_kind: DC50 (nM)
The reply should be a number in nM, with the unit left off.

Cc1ncsc1-c1ccc(CNC(=O)[C@@H]2C[C@@H](O)CN2C(=O)[C@H](C(C)C)n2cc(-c3ccc(COc4c(-c5c(C)c(F)cc6[nH]ncc56)c(C5CC5)cc5c(N6C[C@@H]7C[C@H]6CN7)nc(OC6CCOCC6)nc45)cc3)nn2)cc1 [Example 10] | 124
CCOc1nc(N2C[C@@H]3C[C@H]2CN3)c2cc(C3CC3)c(-c3c(C)c(F)cc4[nH]ncc34)c(OCc3ccc(C(=O)N[C@H](C(=O)N4C[C@H](O)C[C@H]4C(=O)N[C@@H](CO)c4ccc(-c5scnc5C)cc4)C(C)C)cc3)c2n1 [Example 5] | 153
Cc1c(F)cc2[nH]ncc2c1-c1c(C2CC2)cc2c(N3C[C@@H]4C[C@H]3CN4)nc(OC3CCOCC3)nc2c1OCc1ccc(-c2cn([C@H](C(=O)N3C[C@H](O)C[C@H]3C(=O)N[C@@H](CO)c3ccccc3)C(C)C)nn2)cc1 (atropisomer, axis not shown) [Example 14] | 221

Next up:
What the record says about Cc1ncsc1-c1ccc([C@H](C)NC(=O)[C@@H]2C[C@@H](O)CN2C(=O)[C@H](C(C)C)n2cc(-c3ccc(COc4c(-c5c(C)c(F)cc6[nH]ncc56)c(C5CC5)cc5c(N6C[C@@H]7C[C@H]6CN7)nc(OC6CCOCC6)nc45)cc3)nn2)cc1 [Example 9] : DC50 is 77
